- Experimental System: ABL1(F317L)-nonphosphorylated (Homo sapiens, UniProt P00519, F317L)
- Construct: purchased Eurofins DiscoverX KINOMEscan (scanTK)
- Sequence (P00519 whole entry F317L): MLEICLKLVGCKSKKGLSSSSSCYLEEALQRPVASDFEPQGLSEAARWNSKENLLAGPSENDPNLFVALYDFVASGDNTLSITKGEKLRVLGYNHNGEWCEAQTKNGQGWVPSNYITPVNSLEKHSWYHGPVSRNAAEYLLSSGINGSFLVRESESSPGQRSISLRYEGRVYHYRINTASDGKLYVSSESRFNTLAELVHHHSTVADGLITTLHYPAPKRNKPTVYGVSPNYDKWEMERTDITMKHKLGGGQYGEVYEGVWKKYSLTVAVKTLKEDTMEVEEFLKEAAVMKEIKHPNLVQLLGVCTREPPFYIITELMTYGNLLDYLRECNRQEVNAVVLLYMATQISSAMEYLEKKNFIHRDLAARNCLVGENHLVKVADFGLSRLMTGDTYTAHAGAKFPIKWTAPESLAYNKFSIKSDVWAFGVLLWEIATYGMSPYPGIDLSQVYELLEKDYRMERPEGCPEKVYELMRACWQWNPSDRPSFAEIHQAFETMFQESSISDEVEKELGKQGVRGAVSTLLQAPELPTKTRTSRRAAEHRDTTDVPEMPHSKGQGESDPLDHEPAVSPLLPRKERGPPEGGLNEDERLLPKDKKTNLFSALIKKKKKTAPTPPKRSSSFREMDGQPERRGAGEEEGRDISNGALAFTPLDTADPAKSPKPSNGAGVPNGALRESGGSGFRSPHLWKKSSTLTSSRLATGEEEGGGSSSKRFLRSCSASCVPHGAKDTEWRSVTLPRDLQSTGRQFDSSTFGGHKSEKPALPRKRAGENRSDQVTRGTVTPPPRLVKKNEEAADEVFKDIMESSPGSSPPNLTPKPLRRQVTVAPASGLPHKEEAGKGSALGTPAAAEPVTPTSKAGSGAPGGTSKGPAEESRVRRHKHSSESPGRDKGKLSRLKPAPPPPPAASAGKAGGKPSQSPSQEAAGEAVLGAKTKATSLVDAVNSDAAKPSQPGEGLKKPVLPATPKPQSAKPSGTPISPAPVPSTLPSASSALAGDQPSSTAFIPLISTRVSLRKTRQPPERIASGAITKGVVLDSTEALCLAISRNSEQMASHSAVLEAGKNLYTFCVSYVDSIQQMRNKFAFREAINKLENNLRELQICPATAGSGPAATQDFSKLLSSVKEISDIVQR
- Experiment Description: KINOMEscan ScanTK
- Assay type: binding
- Experimental Parameters: @1000nM, read-out: %Control
Mark met for remaining binding at 1 µM under 70%, not met if at or over.

[[record]]
molecule = "CNC(=O)c1cnc(S(C)(=O)=O)nc1N1CCCC(n2nc(-c3ccc(Oc4ccccc4)cc3)c3c(N)ncnc32)C1 (centres unmarked)"
experimental_system = "ABL1(F317L)-nonphosphorylated (Homo sapiens, UniProt P00519, F317L)"
group = "met"

[[record]]
molecule = "C=CC(=O)N1CCC[C@@H](n2nc(-c3ccc(Oc4ccccc4)cc3)c3c(N)ncnc32)C1 [Compound 1g, Ibrutinib, reference compound]"
experimental_system = "ABL1(F317L)-nonphosphorylated (Homo sapiens, UniProt P00519, F317L)"
group = "met"

[[record]]
molecule = "Cc1cnc(S(C)(=O)=O)nc1N1CCCC(n2nc(-c3ccc(Oc4ccccc4)cc3)c3c(N)ncnc32)C1 (centres unmarked)"
experimental_system = "ABL1(F317L)-nonphosphorylated (Homo sapiens, UniProt P00519, F317L)"
group = "not met"


Attention now shifts to the item below.
Q: Below 70% on remaining binding at 1 µM? Entry CCOC(=O)c1cnc(S(C)(=O)=O)nc1N1CCC[C@@H](n2nc(-c3ccc(Oc4ccccc4)cc3)c3c(N)ncnc32)C1
Result: not met

###

- Experimental System: LTK (Homo sapiens, UniProt P29376)
- Construct: purchased Eurofins DiscoverX KINOMEscan (scanTK)
- Sequence (P29376 17-864): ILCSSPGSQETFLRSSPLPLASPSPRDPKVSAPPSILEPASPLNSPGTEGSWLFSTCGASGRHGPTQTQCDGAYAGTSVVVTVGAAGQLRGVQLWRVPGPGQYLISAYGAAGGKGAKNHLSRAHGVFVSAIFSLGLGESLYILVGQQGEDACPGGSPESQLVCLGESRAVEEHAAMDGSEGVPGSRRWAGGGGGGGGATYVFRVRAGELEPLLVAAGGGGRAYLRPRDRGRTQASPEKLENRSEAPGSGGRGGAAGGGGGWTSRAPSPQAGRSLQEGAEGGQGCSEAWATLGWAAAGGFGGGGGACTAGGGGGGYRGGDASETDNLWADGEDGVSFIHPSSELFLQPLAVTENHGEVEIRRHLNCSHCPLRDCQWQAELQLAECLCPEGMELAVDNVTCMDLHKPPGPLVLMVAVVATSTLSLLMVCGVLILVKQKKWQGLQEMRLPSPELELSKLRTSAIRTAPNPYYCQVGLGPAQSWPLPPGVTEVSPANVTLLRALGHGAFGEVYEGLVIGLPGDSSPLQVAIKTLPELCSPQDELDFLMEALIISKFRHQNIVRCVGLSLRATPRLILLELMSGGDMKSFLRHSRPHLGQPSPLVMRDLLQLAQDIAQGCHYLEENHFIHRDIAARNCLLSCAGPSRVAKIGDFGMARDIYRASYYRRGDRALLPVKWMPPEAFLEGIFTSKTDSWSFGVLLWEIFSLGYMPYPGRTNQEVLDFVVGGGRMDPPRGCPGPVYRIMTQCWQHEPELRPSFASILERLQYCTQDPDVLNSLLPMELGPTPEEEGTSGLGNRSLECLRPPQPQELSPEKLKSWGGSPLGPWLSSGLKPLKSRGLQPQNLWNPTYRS
- Experiment Description: KINOMEscan ScanTK
- Type: binding
- Experimental Parameters: @1000nM, read-out: %Control
Measurement Label: remaining binding at 1 µM
State the result as a value with its unit after it.

// worked examples, remaining binding at 1 µM included
[[record]]
compound = "COC(=O)c1cnc(S(C)(=O)=O)nc1N1CCCC(n2nc(-c3ccc(Oc4ccccc4)cc3)c3c(N)ncnc32)C1 (centres unmarked) [Compound 8b]"
observed_measurement = "94%"

[[record]]
compound = "C=CC(=O)N1CCC[C@@H](n2nc(-c3ccc(Oc4ccccc4)cc3)c3c(N)ncnc32)C1 [Compound 1g, Ibrutinib, reference compound]"
observed_measurement = "81%"

[[record]]
compound = "CCOC(=O)c1cnc(S(C)(=O)=O)nc1N1CCC[C@@H](n2nc(-c3ccc(Oc4ccccc4)cc3)c3c(N)ncnc32)C1 [Compound 8c]"
observed_measurement = "100%"

[[record]]
compound = "CNC(=O)c1cnc(S(C)(=O)=O)nc1N1CCCC(n2nc(-c3ccc(Oc4ccccc4)cc3)c3c(N)ncnc32)C1 (centres unmarked) [Compound 8d]"
observed_measurement = "100%"


Q: Can you look up the measured remaining binding at 1 µM of Cc1cnc(S(C)(=O)=O)nc1N1CCCC(n2nc(-c3ccc(Oc4ccccc4)cc3)c3c(N)ncnc32)C1 (centres unmarked) [Compound 8a] for me?
Result: 93%

###

- Experimental System: JAK3(JH1domain-catalytic) (Homo sapiens)
- Construct: JAK3(JH1domain-catalytic); purchased Eurofins DiscoverX KINOMEscan (scanTK)
- Sequence (P52333 822-1124 limits assumed): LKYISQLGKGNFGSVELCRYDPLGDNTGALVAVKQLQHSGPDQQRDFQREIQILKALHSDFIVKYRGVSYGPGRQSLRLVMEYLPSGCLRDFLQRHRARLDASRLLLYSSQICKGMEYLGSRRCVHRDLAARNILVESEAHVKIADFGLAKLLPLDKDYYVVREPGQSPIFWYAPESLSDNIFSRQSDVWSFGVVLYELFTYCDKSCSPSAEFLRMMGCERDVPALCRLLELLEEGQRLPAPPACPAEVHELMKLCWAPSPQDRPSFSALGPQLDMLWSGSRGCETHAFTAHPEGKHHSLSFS
- Experiment Description: KINOMEscan ScanTK
- Format: binding
- Experimental Parameters: JAK3(JH1domain-catalytic); read-out: %Control @1000nM
Measurement Label: remaining binding at 1 µM (%)
Give the value in % but do not write % after it.

// worked examples, remaining binding at 1 µM included
[[record]]
molecule = "Cc1cnc(S(C)(=O)=O)nc1N1CCCC(n2nc(-c3ccc(Oc4ccccc4)cc3)c3c(N)ncnc32)C1 (centres unmarked)"
measurement_label = "remaining binding at 1 µM"
observed_measurement = 100

[[record]]
molecule = "CCOC(=O)c1cnc(S(C)(=O)=O)nc1N1CCC[C@@H](n2nc(-c3ccc(Oc4ccccc4)cc3)c3c(N)ncnc32)C1"
measurement_label = "remaining binding at 1 µM"
observed_measurement = 100

[[record]]
molecule = "COC(=O)c1cnc(S(C)(=O)=O)nc1N1CCCC(n2nc(-c3ccc(Oc4ccccc4)cc3)c3c(N)ncnc32)C1 (centres unmarked)"
measurement_label = "remaining binding at 1 µM"
observed_measurement = 100

[[record]]
molecule = "CNC(=O)c1cnc(S(C)(=O)=O)nc1N1CCCC(n2nc(-c3ccc(Oc4ccccc4)cc3)c3c(N)ncnc32)C1 (centres unmarked)"
measurement_label = "remaining binding at 1 µM"
observed_measurement = 73


Q: Can you look up the measured remaining binding at 1 µM of C=CC(=O)N1CCC[C@@H](n2nc(-c3ccc(Oc4ccccc4)cc3)c3c(N)ncnc32)C1 [Compound 1g, Ibrutinib, reference compound] for me?
Result: 5.5

###

- Experimental System: FLT3(D835V) (Homo sapiens, UniProt P36888, D835V)
- Construct: purchased Eurofins DiscoverX KINOMEscan (scanTK)
- Experiment Description: KINOMEscan ScanTK
- Type: binding
- Experimental Parameters: @1000nM, read-out: %Control
Overview of recorded remaining binding at 1 µM for various molecules
Give the value in % but do not write % after it.

[[record]]
molecule = "CNC(=O)c1cnc(S(C)(=O)=O)nc1N1CCCC(n2nc(-c3ccc(Oc4ccccc4)cc3)c3c(N)ncnc32)C1 (stereo not shown) [Compound 8d]"
observed_measurement = 23

[[record]]
molecule = "COC(=O)c1cnc(S(C)(=O)=O)nc1N1CCCC(n2nc(-c3ccc(Oc4ccccc4)cc3)c3c(N)ncnc32)C1 (stereo not shown) [Compound 8b]"
observed_measurement = 48

[[record]]
molecule = "CCOC(=O)c1cnc(S(C)(=O)=O)nc1N1CCC[C@@H](n2nc(-c3ccc(Oc4ccccc4)cc3)c3c(N)ncnc32)C1 [Compound 8c]"
observed_measurement = 56


Q: Can you look up the measured remaining binding at 1 µM of Cc1cnc(S(C)(=O)=O)nc1N1CCCC(n2nc(-c3ccc(Oc4ccccc4)cc3)c3c(N)ncnc32)C1 (stereo not shown) [Compound 8a] for me?
Result: 30

###

- Experimental System: FLT3(D835Y) (Homo sapiens, UniProt P36888, D835Y)
- Construct: purchased Eurofins DiscoverX KINOMEscan (scanTK)
- Experiment Description: KINOMEscan ScanTK
- Assay type: binding
- Experimental Parameters: @1000nM, read-out: %Control
Measurement Label: remaining binding at 1 µM (%)
Give the value in % but do not write % after it.

Q: Can you look up the measured remaining binding at 1 µM of CCOC(=O)c1cnc(S(C)(=O)=O)nc1N1CCC[C@@H](n2nc(-c3ccc(Oc4ccccc4)cc3)c3c(N)ncnc32)C1 [Compound 8c] for me?
Result: 99

Q: Next record, please: CNC(=O)c1cnc(S(C)(=O)=O)nc1N1CCCC(n2nc(-c3ccc(Oc4ccccc4)cc3)c3c(N)ncnc32)C1 (stereo not shown) [Compound 8d]
Result: 59

Q: Next record, please: COC(=O)c1cnc(S(C)(=O)=O)nc1N1CCCC(n2nc(-c3ccc(Oc4ccccc4)cc3)c3c(N)ncnc32)C1 (stereo not shown) [Compound 8b]
Result: 67

Q: Next record, please: Cc1cnc(S(C)(=O)=O)nc1N1CCCC(n2nc(-c3ccc(Oc4ccccc4)cc3)c3c(N)ncnc32)C1 (stereo not shown) [Compound 8a]
Result: 45

###

Overview of recorded difference in %Control versus compound Ib at 1 µM for various molecules
- Experimental System: FLT3(R834Q) (Homo sapiens, UniProt P36888, R834Q)
- Construct: purchased Eurofins DiscoverX KINOMEscan (scanTK)
- Sequence (P36888 27-993 R834Q): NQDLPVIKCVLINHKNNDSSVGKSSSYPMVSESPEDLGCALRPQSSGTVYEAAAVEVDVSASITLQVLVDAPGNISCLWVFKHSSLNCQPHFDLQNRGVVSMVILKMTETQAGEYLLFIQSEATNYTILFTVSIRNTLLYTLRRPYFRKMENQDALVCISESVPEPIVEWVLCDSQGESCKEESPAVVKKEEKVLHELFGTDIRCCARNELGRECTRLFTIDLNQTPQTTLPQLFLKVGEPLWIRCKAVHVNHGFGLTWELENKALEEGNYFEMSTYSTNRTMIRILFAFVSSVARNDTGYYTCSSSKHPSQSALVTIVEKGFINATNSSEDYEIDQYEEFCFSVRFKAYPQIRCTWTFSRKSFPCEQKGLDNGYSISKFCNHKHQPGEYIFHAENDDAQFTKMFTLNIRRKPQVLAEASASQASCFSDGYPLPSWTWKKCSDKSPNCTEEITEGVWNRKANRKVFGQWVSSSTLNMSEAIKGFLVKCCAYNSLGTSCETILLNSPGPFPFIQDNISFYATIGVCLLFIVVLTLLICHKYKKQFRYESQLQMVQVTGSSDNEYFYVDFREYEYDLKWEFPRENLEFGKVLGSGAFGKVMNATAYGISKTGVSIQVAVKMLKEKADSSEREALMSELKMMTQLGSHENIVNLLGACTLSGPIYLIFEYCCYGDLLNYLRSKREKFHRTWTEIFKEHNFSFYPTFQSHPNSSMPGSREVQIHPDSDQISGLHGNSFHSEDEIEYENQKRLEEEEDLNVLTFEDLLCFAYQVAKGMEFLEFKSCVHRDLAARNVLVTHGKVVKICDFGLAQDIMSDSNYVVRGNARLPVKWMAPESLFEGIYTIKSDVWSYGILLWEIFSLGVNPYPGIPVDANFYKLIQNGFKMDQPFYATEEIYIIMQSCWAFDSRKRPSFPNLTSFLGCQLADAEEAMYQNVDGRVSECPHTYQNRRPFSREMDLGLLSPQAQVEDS
- Experiment Description: KINOMEscan ScanTK
- Format: binding
- Experimental Parameters: @1000nM
Give the value in % but do not write % after it.

// worked examples, difference in %Control versus compound Ib at 1 µM included
[[record]]
molecule = "CCOC(=O)c1cnc(S(C)(=O)=O)nc1N1CCC[C@@H](n2nc(-c3ccc(Oc4ccccc4)cc3)c3c(N)ncnc32)C1 [Compound 8c]"
observed_measurement = 38

[[record]]
molecule = "Cc1cnc(S(C)(=O)=O)nc1N1CCCC(n2nc(-c3ccc(Oc4ccccc4)cc3)c3c(N)ncnc32)C1 (stereo not shown) [Compound 8a]"
observed_measurement = 9

[[record]]
molecule = "CNC(=O)c1cnc(S(C)(=O)=O)nc1N1CCCC(n2nc(-c3ccc(Oc4ccccc4)cc3)c3c(N)ncnc32)C1 (stereo not shown) [Compound 8d]"
observed_measurement = 29


Now consider the entry below.
Q: Can you look up the measured difference in %Control versus compound Ib at 1 µM of COC(=O)c1cnc(S(C)(=O)=O)nc1N1CCCC(n2nc(-c3ccc(Oc4ccccc4)cc3)c3c(N)ncnc32)C1 (stereo not shown) [Compound 8b] for me?
Result: 22

Data origin, for the record: paper PMC11345841
